tested on: MDA-MB-468 breast; experiment: NCI tumour cell line growth inhibition, 48 h; in the data active = GI50 below about 0.43 µM; inactive = the rest
Write down one outcome, taken from 1.0 for active, 0.0 for inactive

Study these solved cases before continuing.
[[record]]
compound = "COc1cc(C2C(C#N)=C(N)Oc3cc4c(cc32)OCO4)cc2c1OCO2 (stereo unspecified)"
group_label = 1.0

[[record]]
compound = "Brc1ccc(Br)nn1"
group_label = 0.0

[[record]]
compound = "C=C1C(=O)OC2CC3(C)OC3C3OC3C3=CC(OC3=O)C12 (stereo unspecified)"
group_label = 0.0


Please let me know the test result on file for Oc1[nH]c2ccc(Cl)cc2c1/C=c1/ccc2c(c1)N=C(c1cc(F)cc(F)c1)N=2 .
0.0

Cool, now CON
0.0

Cool, now CN(NC(=O)CC(=O)NN(C)C(=S)c1ccc(Cl)cc1)C(=S)c1ccc(Cl)cc1
0.0

Cool, now CNCCOc1nc2c3cnccc3cc(-c3cc(OC)c(OC)c(OC)c3)c2c2ccncc12
1.0

Cool, now N#CSCC(=O)c1ccc(Cl)cc1
0.0

Cool, now COc1cnc2c(c1)C(=O)c1c-2n(CCCN2CCN(CCO)CC2)c(=O)c2cc([N+](=O)[O-])ccc12
0.0

Cool, now CN1CCN(c2ccc3nc4c(nc3c2C(F)(F)F)C(=O)c2ncccc2C4=O)CC1
0.0

Cool, now CCCCCc1c(C)[nH]c(/C=c2\[nH]/c(=C3/C=c4ccccc4=N3)cc2OC)c1C
1.0

====

Can you tell me TGI for the items I'm about to list?
system: MDA-MB-468 breast; assay: NCI tumour cell line growth inhibition, 48 h

[[record]]
compound_smiles = "O=c1cc(-c2ccccc2Cl)[nH]c2cc3c(cc12)OCO3"
metric_name = "TGI"
reported = "> 100 µM"

[[record]]
compound_smiles = "CC(=O)N[C@@H](Cc1ccc(OP(=O)(O)O)cc1)C(=O)N[C@H]1CCC(=O)N2CCC[C@@H](C(=O)NCc3ccc(O)cc3)N2C1=O"
metric_name = "TGI"
reported = "> 25 µM"

[[record]]
compound_smiles = "CS[C@@]1(C(=O)Nc2ccc3[nH]nc(-c4ccc(OC(C)C)nc4)c3c2)CCN(CC(=O)N2CC=C(c3ccc(-c4ncn(C)n4)cc3)CC2)C1"
metric_name = "TGI"
reported = "> 100 µM"


What value of TGI has been reported for the following molecule? C[C@@H]1CN2[C@H]3[C@@H]1CC[C@]31CCC(=O)O[C@]1(C)[C@@H]1CC[C@H]3CCC=C3[C@@H]12
> 70 µM
